For each record, write down the corresponding melting point.

The recorded melting point for entry CCCCNC(=O)C(C)n1nnc2ccc(Oc3cc(F)c(C(F)(F)F)c(Cl)c3)cc21 (stereo unspecified) equals 142 to 143 °C

The recorded melting point for entry O=C(CCc1ccccc1)N[C@H](Cc1ccc(Oc2ccccc2)cc1)[C@@H](O)c1ccc(F)cc1 (racemic) equals 108 to 110 °C

The recorded melting point for entry CCOC(=O)C(C)NC(=O)N(C)N (stereo unspecified) equals 77 to 79.5 °C

The recorded melting point for entry CCN(CC)C(=O)n1cc(Cc2ccc(C(=O)NS(=O)(=O)c3ccccc3C)cc2OC)c2cc(C(=O)NCC(C)CC(F)(F)F)ccc21 (stereo unspecified) equals 153 to 154 °C

The recorded melting point for entry CC1CNCCNCCNCCNCCN1 (stereo unspecified) equals 73 to 75 °C

The recorded melting point for entry O=C1CCc2c(Cl)cc(F)cc21 equals 94 to 96 °C

The recorded melting point for entry O=C(NCCCCCCCCc1ccccc1)c1cc(-c2cccc(C(F)(F)F)c2)c(OCCO)c(-c2cccc(C(F)(F)F)c2)c1 equals 143 to 145 °C

The recorded melting point for entry CN1CCC(=O)C(C2c3ccccc3CCc3ccccc32)C1 (stereo unspecified) equals 146 to 147 °C

The recorded melting point for entry C=CCc1cc2c(c(CC=C)c1OC1CCCCO1)CCC(=O)N2CCC#N (stereo unspecified) equals 93 to 94 °C

The recorded melting point for entry NS(=O)(=O)c1cccc(-c2noc(-c3cnn4c(C5CC5)cc(-c5ccc(Cl)cc5)nc34)n2)c1 equals 285 °C

The recorded melting point for entry CCOC(=O)C1=C(C)NC(=S)N(C(=O)OCC)C1c1ccccc1Cl (stereo unspecified) equals 126 to 128 °C

The recorded melting point for entry COC1(c2cccc(OCc3ccc(-n4ccnc4)cc3)c2)CCOCC1 equals 129 to 130 °C

The recorded melting point for entry CN1CCN(C(=O)c2ccc(-c3ccc4nnn(Cc5ccc6ncccc6c5)c4n3)cc2)CC1 equals 156 to 158 °C

The recorded melting point for entry O=c1c2c(c1=O)Nc1cc(Cl)c(Cl)cc1N2 equals > 360 °C

The recorded melting point for entry C=CCNC(=S)Nc1cc(=N)n2c(n1)SCC2 equals 225 to 226 °C

The recorded melting point for entry NC(=O)CNC(=O)c1cccc(-c2cccc3oc(Cc4cccc(C(F)(F)F)c4)cc23)c1 equals 105 to 106 °C
